# TARGET: T1, human CD22, endogenous on Raji cells (human, UniProt P20273 20-847)
# T1 construct: whole, on cells; Endogenous protein of the Raji cell line
# T1 sequence (looked up): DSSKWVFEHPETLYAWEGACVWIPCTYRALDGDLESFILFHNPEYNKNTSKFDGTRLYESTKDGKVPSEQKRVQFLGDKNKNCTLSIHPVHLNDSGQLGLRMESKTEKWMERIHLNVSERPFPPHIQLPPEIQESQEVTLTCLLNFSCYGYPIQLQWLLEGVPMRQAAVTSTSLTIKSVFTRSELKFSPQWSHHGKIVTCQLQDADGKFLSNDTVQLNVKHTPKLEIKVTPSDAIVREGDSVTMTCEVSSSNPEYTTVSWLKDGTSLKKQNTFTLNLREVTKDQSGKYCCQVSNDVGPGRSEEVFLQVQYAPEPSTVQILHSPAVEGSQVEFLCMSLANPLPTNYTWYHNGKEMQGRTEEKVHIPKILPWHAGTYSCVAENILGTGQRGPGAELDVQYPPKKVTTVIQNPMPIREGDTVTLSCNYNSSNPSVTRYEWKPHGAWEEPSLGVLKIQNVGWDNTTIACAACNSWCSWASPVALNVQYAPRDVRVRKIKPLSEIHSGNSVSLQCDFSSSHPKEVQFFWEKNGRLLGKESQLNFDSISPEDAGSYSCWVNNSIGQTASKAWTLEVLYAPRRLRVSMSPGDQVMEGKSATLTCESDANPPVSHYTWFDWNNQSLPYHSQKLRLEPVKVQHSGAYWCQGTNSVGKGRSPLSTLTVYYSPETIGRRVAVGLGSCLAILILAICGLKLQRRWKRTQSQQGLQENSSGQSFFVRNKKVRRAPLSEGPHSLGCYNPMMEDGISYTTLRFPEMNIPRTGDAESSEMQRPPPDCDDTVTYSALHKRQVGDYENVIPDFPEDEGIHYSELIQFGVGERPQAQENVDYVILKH
# TEST DESCRIPTION: FACS, Raji cells
Maximum mean fluorescence intensity for assorted binders
QUANTITY MEASURED: Maximum mean fluorescence intensity (MFI)

BINDER	MEASURED RESULT
F2.180.16 human-murine chimeric antibody (antibody, human IgG1, lambda, V domains shown, Chimeric, human IgG1 / lambda) VH: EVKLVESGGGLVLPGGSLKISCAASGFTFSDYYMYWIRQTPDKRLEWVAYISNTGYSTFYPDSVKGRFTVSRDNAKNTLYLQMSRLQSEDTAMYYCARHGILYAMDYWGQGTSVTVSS VL: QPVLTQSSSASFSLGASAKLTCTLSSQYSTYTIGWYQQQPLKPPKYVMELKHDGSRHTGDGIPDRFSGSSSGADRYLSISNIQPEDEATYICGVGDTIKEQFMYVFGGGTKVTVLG	15700
F2.343.16 human-murine chimeric antibody (antibody, human IgG1, lambda, V domains shown, Chimeric, human IgG1 / lambda; VL tied by name) VH: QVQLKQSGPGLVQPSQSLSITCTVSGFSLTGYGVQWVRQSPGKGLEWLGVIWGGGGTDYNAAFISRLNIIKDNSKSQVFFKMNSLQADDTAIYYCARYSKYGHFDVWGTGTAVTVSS VL: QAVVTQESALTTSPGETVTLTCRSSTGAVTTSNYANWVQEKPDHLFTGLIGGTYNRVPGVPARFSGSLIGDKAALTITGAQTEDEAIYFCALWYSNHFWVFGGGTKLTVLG	19300

Hey, just so you know, these numbers are from patent US20240084003A1.
